Tested on: MCF7
PROCEDURE SUMMARY: Breast Cancer Cell Proliferation Assay (MCF-7), Cell Titer-Glo
Format: cell-based
CONDITION PARAMETERS: Homo sapiens, MCF7, 120 h, MCF7 cells, 5 days of compound exposure
Procedure: Breast Cancer Cell Proliferation Assay (MCF-7) MCF7 was expanded and maintained in the medium (Phenol red free DMEM/F12 (Hyclone SH30272.01) NEAA (Gibco11140-050) Na-pyruvate (Gibco 11360-070) and Re-stripped Charcoal stripped FBS (Gemini 100-119)). […] After 5 days of compound exposure, Cell Titer-Glo reagent was added to the cells and the relative luminescence units (RLUs) of each well was determined. […]
READOUT LABEL: IC50

Solved cases below.
• C[C@@H]1Cc2c([nH]c3ccccc23)[C@@H](c2ccc(N[C@@H]3CN(CCCF)C[C@@H]3F)cc2)N1C12CC(C1)C2 (single isomer, unassigned) = ≤ 25 nM
• C[C@H]1Cc2c([nH]c3ccccc23)[C@H](c2ccc(NC3CN(CCCF)C3)cc2)N1C12CC(CF)(C1)C2 (single isomer, unassigned) = ≤ 25 nM

Measured IC50 of `CCCN1CC(Oc2ccc([C@@H]3c4[nH]c5ccccc5c4C[C@@H](C)N3C34CC(C3)C4)cn2)C1` : 25 to 250 nM
